FYI, the data here is from ChEMBL document CHEMBL1961873.

# Test system: Receptor-type tyrosine-protein kinase FLT3 (Homo sapiens), P36888 [D835Y]
# cond: at 1 µM

>  <compound>
COC(=O)Nc1nc2cc(Oc3ccc(NC(=O)Nc4cccc(C(=O)O)c4)cc3)ccc2[nH]1

>  <value.unit>
%

>  <inhibition>
4.78

$$$$
>  <compound>
O=C1NC(=O)C(c2ccccc2Cl)=C1Nc1cccc(O)c1

>  <value.unit>
%

>  <inhibition>
3.87

$$$$
>  <compound>
CS(=O)(=O)Nc1ccc(N/C=C2\C(=O)Nc3ccccc32)cc1

>  <value.unit>
%

>  <inhibition>
59.1

$$$$
>  <compound>
CCn1c(-c2nonc2N)nc2c(C#CC(C)(C)O)nc(CN3CCCC3)cc21

>  <value.unit>
%

>  <inhibition>
0.63

$$$$
>  <compound>
CN1CCC(C(=O)Nc2n[nH]c3nnc(-c4ccccc4)cc23)CC1

>  <value.unit>
%

>  <inhibition>
-2.63

$$$$
>  <compound>
NC(=O)c1cccc(Nc2nccc(Nc3cccc4[nH]ncc34)n2)c1

>  <value.unit>
%

>  <inhibition>
37.5

$$$$
>  <compound>
Cc1cccc(-c2n[nH]cc2-c2ccc3ncccc3n2)n1

>  <value.unit>
%

>  <inhibition>
-2.35

$$$$
>  <compound>
COc1cc2ncn(-c3cc(OCc4ccccc4Cl)c(C(N)=O)s3)c2cc1OC

>  <value.unit>
%

>  <inhibition>
9.43

$$$$
>  <compound>
CS(=O)(=O)CCNCc1nc(-c2ccc3ncnc(Nc4ccc(F)c(Cl)c4)c3c2)cs1

>  <value.unit>
%

>  <inhibition>
5.8

$$$$
>  <compound>
CC1=C(C(=O)Nc2ccc3[nH]ncc3c2)C(c2ccc(F)cc2)NC(=O)N1 (stereo unspecified)

>  <value.unit>
%

>  <inhibition>
-1.48

$$$$
>  <compound>
COc1cc(C=NNc2ncnc3c2cnn3-c2ccccc2)ccc1O

>  <value.unit>
%

>  <inhibition>
56.8

$$$$
>  <compound>
Nc1nc(-c2ccccn2)c(-c2ccc3ncccc3n2)s1

>  <value.unit>
%

>  <inhibition>
8.59

$$$$
>  <compound>
COc1cc2ncn(-c3cc(O[C@@H](C)c4ccccc4Cl)c(C(N)=O)s3)c2cc1OC

>  <value.unit>
%

>  <inhibition>
3.92

$$$$
>  <compound>
Cc1cc(O)cc(C)c1/C=C/c1cncc(-c2nn[nH]n2)c1

>  <value.unit>
%

>  <inhibition>
-0.25

$$$$
>  <compound>
Cc1ccc(C(=O)NC2CCCCC2)cc1-c1ccc(C(=O)NCC2CC2)cc1

>  <value.unit>
%

>  <inhibition>
-1.53

$$$$
>  <compound>
Nc1ncnc2occ(-c3ccc(NC(=O)Nc4cc(C(F)(F)F)cc(C(F)(F)F)c4)cc3)c12

>  <value.unit>
%

>  <inhibition>
33.2

$$$$
>  <compound>
Nc1ncnc2occ(-c3ccc(NC(=O)Nc4cccc(C(F)(F)F)c4)cc3)c12

>  <value.unit>
%

>  <inhibition>
34.6

$$$$
>  <compound>
Fc1cccc(COc2ccc(Nc3ncnc4sc(-c5cccs5)cc34)cc2Cl)c1

>  <value.unit>
%

>  <inhibition>
4.36

$$$$
>  <compound>
Nc1nc(-c2ccc3c(c2)C(=Cc2cc(Br)c(O)c(Br)c2)C(=O)N3)cs1

>  <value.unit>
%

>  <inhibition>
3.47

$$$$
>  <compound>
O=C1NC(=O)C(c2ccc(Cl)cc2)=C1Nc1ccc(Cl)c(C(=O)O)c1

>  <value.unit>
%

>  <inhibition>
2.75

$$$$
>  <compound>
CC1=C(C(=O)Nc2ccc3[nH]ncc3c2)C(c2ccc(Cl)c(Cl)c2)CC(=O)N1 (stereo unspecified)

>  <value.unit>
%

>  <inhibition>
0.84

$$$$
